- protocol: Half life in BALB/c mouse at 10 mg/kg, po measured for 24 hrs by LC-MS/MS analysis
- Format: ADME, organism-based
- conditions: in vivo
recorded-endpoint: half-life (h)
Dear colleague, please return just the value in h, with no unit written.

Answered cases to consult:
                            chemical_string  measured_result
0  CS(=O)(=O)c1ccc(-c2ncc(C(=O)NCc3cn(-c4cc(Br)ccn4)nn3)s2)cc1             2.66
1  O=C(NCC1(N2CCN(c3ccccc3)CC2)CCOCC1)c1cccnc1Sc1ccccc1              0.8
2  CS(=O)(=O)c1ccc(-c2nc(C(=O)NCc3cn(-c4cc(Br)ccn4)nn3)cs2)cc1             1.92
3  CS(=O)(=O)c1ccc(-c2nc(C(=O)NCc3cn(-c4cc(Cl)ccn4)nn3)cs2)cc1             2.29

Here is the next item to consider.
Ask | Data request, read-out half-life, for "CS(=O)(=O)c1ccc(-c2ncc(C(=O)NCc3cn(-c4cc(Cl)ccn4)nn3)s2)cc1"
Reply | 2.1

Provenance of the data: ChEMBL document CHEMBL5360655
